SYSTEM: DLG1_3, Q12959
Sequence (Q12959 457-571): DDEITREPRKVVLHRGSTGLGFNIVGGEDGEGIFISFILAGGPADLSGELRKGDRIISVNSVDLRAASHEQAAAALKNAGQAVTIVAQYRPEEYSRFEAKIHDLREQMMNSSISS
METHOD SUMMARY: holdup assay
Design: key: below the threshold = too weak to quantify, mostly under pKd 3.1 to 4
CONDITION SET: plain residues with an end cap or a label only (N-terminal biotin on a linker: ttds)
MEASURED PARAMETER: pKd

{"columns": ["BINDER", "RESULT VALUE"],
 "data": [
  ["DKDPHSETAL [TMIGD1, Q6UXZ0]", "below the threshold"],
  ["QRQARSETLV [HPV59-E6, Q81964]", 3.82],
  ["SGSRPSATVV [HPV73-E6, Q82005]", "below the threshold"],
  ["SSLQSLETSV [ATP2B4, P23634]", 4.86]
]}
